Tested on: Enterococcus faecalis
Experiment: Antibacterial activity against Enterococcus faecalis ATCC 29212 incubated in MHB II under aerobic condition for 18 hrs using initial inoculum of 5 x 10^5 CFU/ml by serial dilution method
Format: functional
Assay setup: ATCC 29212, 18 h
Listed below: MIC values for each entry.

Smiles record	Inequality operator	MIC / µg/mL
C[C@@H]1CC[C@@]2(OC1)O[C@H]1C[C@H]3[C@@H]4CC=C5C[C@@H](O[C@@H]6O[C@H](CO)[C@@H](O)[C@H](O)[C@H]6NC(=O)[C@@H](N)CO)CC[C@]5(C)[C@H]4CC[C@]3(C)[C@H]1[C@@H]2C	=	16
CNCC(=O)N[C@H]1[C@H](O[C@H]2CC[C@@]3(C)C(=CC[C@H]4[C@@H]5C[C@@H]6O[C@]7(CC[C@@H](C)CO7)[C@@H](C)[C@@H]6[C@@]5(C)CC[C@@H]43)C2)O[C@H](CO)[C@@H](O)[C@@H]1O	=	4
C[C@@H]1CC[C@@]2(OC1)O[C@H]1C[C@H]3[C@@H]4CC=C5C[C@@H](O[C@@H]6O[C@H](CO)[C@@H](O)[C@H](O)[C@H]6NC(=O)C(F)(F)F)CC[C@]5(C)[C@H]4CC[C@]3(C)[C@H]1[C@@H]2C	>	128
CC(=O)NCC(=O)N[C@H]1[C@H](O[C@H]2CC[C@@]3(C)C(=CC[C@H]4[C@@H]5C[C@@H]6O[C@]7(CC[C@@H](C)CO7)[C@@H](C)[C@@H]6[C@@]5(C)CC[C@@H]43)C2)O[C@H](CO)[C@@H](O)[C@@H]1O	>	128
C[C@@H]1CC[C@@]2(OC1)O[C@H]1C[C@H]3[C@@H]4CC=C5C[C@@H](O[C@@H]6O[C@H](CO)[C@@H](O)[C@H](O)[C@H]6NC(=O)[C@H](C)N)CC[C@]5(C)[C@H]4CC[C@]3(C)[C@H]1[C@@H]2C	=	4
CSCC[C@H](N)C(=O)N[C@H]1[C@H](O[C@H]2CC[C@@]3(C)C(=CC[C@H]4[C@@H]5C[C@@H]6O[C@]7(CC[C@@H](C)CO7)[C@@H](C)[C@@H]6[C@@]5(C)CC[C@@H]43)C2)O[C@H](CO)[C@@H](O)[C@@H]1O	=	4
C[C@@H]1CC[C@@]2(OC1)O[C@H]1C[C@H]3[C@@H]4CC=C5C[C@@H](O[C@@H]6O[C@H](CO)[C@@H](O)[C@H](O)[C@H]6NC(=O)CN)CC[C@]5(C)[C@H]4CC[C@]3(C)[C@H]1[C@@H]2C	=	64
C[C@@H]1CC[C@@]2(OC1)O[C@H]1C[C@H]3[C@@H]4CC=C5C[C@@H](O[C@@H]6O[C@H](CO)[C@@H](O)[C@H](O)[C@H]6N)CC[C@]5(C)[C@H]4CC[C@]3(C)[C@H]1[C@@H]2C.Cl	=	16
C[C@@H]1CC[C@@]2(OC1)O[C@H]1C[C@H]3[C@@H]4CC=C5C[C@@H](O[C@@H]6O[C@H](CO)[C@@H](O)[C@H](O)[C@H]6NC(=O)[C@@H]6CCCN6)CC[C@]5(C)[C@H]4CC[C@]3(C)[C@H]1[C@@H]2C	=	4

Where do the numbers come from? From ChEMBL document CHEMBL4396896.
